- System Under Test: VDR:RXRa (Homo sapiens, UniProt P11473;P19793 full;full)
- Sequence (P11473 whole entry, chain 1 of 2): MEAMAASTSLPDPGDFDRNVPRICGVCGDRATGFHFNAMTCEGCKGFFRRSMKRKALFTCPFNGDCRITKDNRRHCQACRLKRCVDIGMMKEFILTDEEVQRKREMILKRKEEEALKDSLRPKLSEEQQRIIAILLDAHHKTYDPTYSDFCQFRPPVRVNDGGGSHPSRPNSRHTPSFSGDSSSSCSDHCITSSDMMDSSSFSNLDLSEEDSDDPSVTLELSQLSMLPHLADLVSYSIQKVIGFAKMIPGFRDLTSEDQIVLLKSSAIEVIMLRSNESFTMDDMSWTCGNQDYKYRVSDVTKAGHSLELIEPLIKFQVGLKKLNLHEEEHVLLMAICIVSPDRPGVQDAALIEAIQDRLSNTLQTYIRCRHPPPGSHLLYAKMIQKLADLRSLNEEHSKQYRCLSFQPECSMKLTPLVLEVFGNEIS
- Sequence (P19793 whole entry, chain 2 of 2): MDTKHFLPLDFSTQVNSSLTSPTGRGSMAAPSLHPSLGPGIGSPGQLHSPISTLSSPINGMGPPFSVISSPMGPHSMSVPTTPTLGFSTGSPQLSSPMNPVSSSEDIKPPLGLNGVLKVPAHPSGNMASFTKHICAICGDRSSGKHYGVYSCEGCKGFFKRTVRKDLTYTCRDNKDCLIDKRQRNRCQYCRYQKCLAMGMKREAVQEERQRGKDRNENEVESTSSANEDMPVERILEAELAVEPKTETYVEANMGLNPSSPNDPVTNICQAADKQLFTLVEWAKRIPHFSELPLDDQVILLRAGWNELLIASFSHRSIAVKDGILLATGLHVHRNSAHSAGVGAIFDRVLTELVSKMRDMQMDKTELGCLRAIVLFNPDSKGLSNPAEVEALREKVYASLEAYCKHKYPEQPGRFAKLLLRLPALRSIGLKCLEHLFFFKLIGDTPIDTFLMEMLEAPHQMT
- Method Notes: no ligand; PBM; 270 nM : 90 nM RXRa; PBS pH 7.4, 2% milk, 0.02% Triton X-100, 1 mM DTT, BSA, 0.4 mg/ml salmon testes DNA
- Condition Summary: tags: His kept;His cleaved; copies: 1;1; label: surface-attached array probe
Measured Quantity: binding signal

Entry NRC3_wobSeed61_DR2_G25A_o1 (dsDNA) DNA 1: GCCGTCCAAGGTCAGCAGGTCAGTAAAAGCGACGTGGCGATTGACAGCGTAGAATGAAGG DNA 2: CCTTCATTCTACGCTGTCAATCGCCACGTCGCTTTTACTGACCTGCTGACCTTGGACGGC ; binding signal = 4 PBM z-score against 500 random probes
